- target_or_system: T1, soluble heterodimeric hCD3ε/δ.mFc protein (human)
- T1 construct: also called soluble human CD3; soluble heterodimeric CD3 protein
- T1 chain 1: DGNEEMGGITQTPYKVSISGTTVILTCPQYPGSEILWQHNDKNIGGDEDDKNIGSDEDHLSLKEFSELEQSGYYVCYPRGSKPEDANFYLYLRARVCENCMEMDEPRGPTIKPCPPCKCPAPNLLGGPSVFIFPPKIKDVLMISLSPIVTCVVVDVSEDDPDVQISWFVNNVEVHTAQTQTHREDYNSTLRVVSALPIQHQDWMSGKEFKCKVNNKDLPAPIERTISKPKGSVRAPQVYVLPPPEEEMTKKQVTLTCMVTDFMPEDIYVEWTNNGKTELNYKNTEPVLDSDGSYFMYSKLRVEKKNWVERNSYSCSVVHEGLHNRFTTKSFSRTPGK
- T1 chain 2: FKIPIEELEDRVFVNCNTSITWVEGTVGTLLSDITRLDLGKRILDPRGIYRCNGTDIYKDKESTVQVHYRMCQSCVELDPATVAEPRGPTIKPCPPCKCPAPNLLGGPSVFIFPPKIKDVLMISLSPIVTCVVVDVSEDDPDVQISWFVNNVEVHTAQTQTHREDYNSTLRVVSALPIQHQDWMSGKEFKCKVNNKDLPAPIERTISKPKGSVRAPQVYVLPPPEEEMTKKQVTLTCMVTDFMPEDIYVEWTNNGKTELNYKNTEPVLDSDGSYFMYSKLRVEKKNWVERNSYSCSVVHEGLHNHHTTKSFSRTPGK
- assay_info: SPR MASS-1, 37 C, antigen-capture (hCD3ε/δ.mFc captured), antibody injected
I'd be grateful if you could share measured kon for these entries.
Quick note: unit goes after the number.

Per the records, this binder ( BSPSMA/CD3-1500 (bispecific antibody, IgG4, V domains shown, modified (chimeric) IgG4 Fc domain; also called PSMA-VH-11810 x CD3-VH-G15) VH 1: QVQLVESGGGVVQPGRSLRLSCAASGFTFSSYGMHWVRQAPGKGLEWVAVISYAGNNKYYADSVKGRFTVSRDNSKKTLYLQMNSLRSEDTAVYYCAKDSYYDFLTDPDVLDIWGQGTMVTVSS VH 2: EVQLVESGGGLVQPGRSLRLSCAASGFTFDDYSMHWVRQAPGKGLEWVSGISWNSGSKGYADSVKGRFTISRDNAKNSLYLQMNSLRAEDTALYYCAKDGSGYGKFYYYGLDVWGQGTTVTVSS VL: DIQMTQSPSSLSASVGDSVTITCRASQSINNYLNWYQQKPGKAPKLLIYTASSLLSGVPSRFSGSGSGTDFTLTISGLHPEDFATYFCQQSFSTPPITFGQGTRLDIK ) has kon equal to 73600 M⁻¹ s⁻¹

Per the records, this binder ( BSPSMA/CD3-2100 (bispecific antibody, IgG4, V domains shown, modified (chimeric) IgG4 Fc domain; also called PSMA-VH-11810 x CD3-VH-G21) VH 1: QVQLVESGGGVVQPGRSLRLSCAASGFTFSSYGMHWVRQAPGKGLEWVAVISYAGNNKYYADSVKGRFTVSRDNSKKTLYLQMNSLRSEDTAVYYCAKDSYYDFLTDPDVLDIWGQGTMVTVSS VH 2: EVQLVESGGGLVQPGRSLRLSCAASGFTFDDYSMHWVRQAPGKGLEWVSGISWNSGSKGYADSVKGRFTISRDNAKNSLYLQMNSLRAEDTALYYCAKDGSGYGKFYYYGMDVWGQGTTVTVSS VL: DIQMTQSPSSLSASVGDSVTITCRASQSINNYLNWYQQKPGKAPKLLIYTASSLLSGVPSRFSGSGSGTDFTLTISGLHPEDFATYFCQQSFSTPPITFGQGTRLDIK ) has kon equal to 30200 M⁻¹ s⁻¹
